Molecular target: T1, 4H717-bA
T1 chain: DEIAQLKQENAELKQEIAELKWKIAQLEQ
Assay: two-hybrid library CCNG1;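 note: natural log of median RNA to DNA barcode read ratio; higher means stronger binding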
Assay Readout: interaction score

// solved cases for interaction score follow
# Binder, Reported
data = [
    ("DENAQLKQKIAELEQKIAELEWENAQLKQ [4H1828-bA]", -1.09),
    ("DKNAQLEQKIAELKQKIAELEWENAQLEQ [4H3427-bA]", -1.4),
]

a: DEIAQLKQEIAELKQENAELKWKNAQLEQ [4H607-bA]
b: DKNAQLKQKNAELEQKIAELEWEIAQLEQ [4H4001-bA]
c: DEIAQLKQENAELEQKIAELKWKNAQLEQ [4H687-bA]
d: DKNAQLEQKIAELEQENAELKWEIAQLKQ [4H3354-bA]
e: DEIAQLKQENAELKQEIAELKWKIAQLEQ [4H717-bA]
Query: Hey, can you sort those binders up there by interaction score, smallest first? Give the order by naming the labels one after another as requested.
Reply: b, c, d, a, e
(b: -2.02, c: -1.32, d: -0.712, a: -0.469, e: 0.924)
